These data points were gathered from ChEMBL document CHEMBL2331542.

Listed here: items and their measured MIC.
Tested on: Escherichia coli
assay.procedure: Antibacterial activity against extended-spectrum beta-lactamase-producing Escherichia coli isolate 12-4
Type: functional
property: MIC (µg/mL)

>>> val("CNC1CCN(c2c(F)cc3c(=O)c(C(=O)O)cn(C4CC4)c3c2OC)C/C1=N\\OC (centres undefined)")
32
>>> val("CO/N=C1\\CN(c2c(F)cc3c(=O)c(C(=O)O)cn(C4CC4)c3c2OC)CCC1N (centres undefined)")
16
>>> val("CCO/N=C1\\CN(c2c(F)cc3c(=O)c(C(=O)O)cn(C4CC4)c3c2F)CCC1NC (centres undefined)")
16
>>> val("CCO/N=C1\\CN(c2nc3c(cc2F)c(=O)c(C(=O)O)cn3C2CC2)CCC1NC (centres undefined)")
32
>>> val("CNC1CCN(c2nc3c(cc2F)c(=O)c(C(=O)O)cn3-c2ccc(F)cc2F)C/C1=N\\OC (centres undefined)")
32
>>> val("CNC1CCN(c2c(F)cc3c(=O)c(C(=O)O)cn4c3c2OC[C@@H]4C)C/C1=N\\OC (some centres undefined)")
16
>>> val("CCO/N=C1\\CN(c2c(F)cc3c(=O)c(C(=O)O)cn(C4CC4)c3c2OC)CCC1NC (centres undefined)")
32
>>> val("CO/N=C1\\CN(c2c(F)cc3c(=O)c(C(=O)O)cn4c3c2OC[C@@H]4C)CCC1N (some centres undefined)")
16
>>> val("CCn1cc(C(=O)O)c(=O)c2cc(F)c(N3CCC(NC)/C(=N/OC)C3)c(F)c21 (centres undefined)")
128
